- Test system: Streptococcus pyogenes
- protocol-text: Antibacterial activity against Streptococcus pyogenes ATCC 12344 incubated for 18 to 24 hrs by CLSI based microdilution broth method
- Assay type: functional
- experimental-conditions: time 18-24 hrs
readout-label: log10(MIC) (log10 of the value in µg/mL)

>>> test_result("O=C(O)C(F)(F)F.[N-]=[N+]=NCCCCCCCCN(CCCCCCCCNC(=N)N)C(=O)N(CCCCCCCCN=[N+]=[N-])CCCCCCCCNC(=N)N")
0.90
>>> test_result("N=C(N)NCCCCCCCN(CCCCCCCNC(=N)NCC1CC1)C(=O)N(CCCCCCCNC(=N)N)CCCCCCCNC(=N)NCC1CC1.O=C(O)C(F)(F)F")
0.60
>>> test_result("CNC(=N)NCCCCCCCCNC(N)=O.O=C(O)C(F)(F)F")
1.81
>>> test_result("N=C(N)NCCCCCCCCN(CCCCCCCCNC(=N)NCC1CC1)C(=O)N(CCCCCCCCNC(=N)NCC1CC1)CCCCCCNC(=N)N.O=C(O)C(F)(F)F")
-0.30
>>> test_result("N=C(N)NCCCCCCCCN(CCCCCCCCNC(=N)NCC1CC1)C(=O)N(CCCCCCCCNC(=N)N)CCCCCCNC(=N)NCC1CC1.O=C(O)C(F)(F)F")
0.60
>>> test_result("N=C(N)NCCCCCCCN(CCCCCCCNC(=N)NCC1CC1)C(=O)N(CCCCCCNC(=N)N)CCCCCCNC(=N)NCC1CC1.O=C(O)C(F)(F)F")
0.60
>>> test_result("N=C(N)NCCCCCCCCN(CCCCCCNC(=N)NCC1CC1)C(=O)N(CCCCCCCCNC(=N)N)CCCCCCNC(=N)NCC1CC1.O=C(O)C(F)(F)F")
0.00
>>> test_result("CNC(=S)NCCCCCCCCN(CCCCCCCCNC(=N)NCC1CC1)C(=O)N(CCCCCCCCNC(=N)NCC1CC1)CCCCCCCCNC(=S)NC.O=C(O)C(F)(F)F")
0.60
>>> test_result("CC(C)=CCC/C(C)=C/CNC(=N)NCCCCCCCCN(CCCCCCCCNC(=N)N)C(=O)N(CCCCCCCCNC(=N)N)CCCCCCCCNC(=N)NC/C=C(\\C)CCC=C(C)C.O=C(O)C(F)(F)F")
0.30
>>> test_result("CC(C)NC(=N)NCCCCCCCCN(CCCCCCCCNC(=N)N)C(=O)N(CCCCCCCCNC(=N)N)CCCCCCCCNC(=N)NC(C)C.O=C(O)C(F)(F)F")
-0.30
>>> test_result("CCCCCCCCCC(=O)N[C@@H](Cc1c[nH]c2ccccc12)C(=O)N[C@H](CC(N)=O)C(=O)N[C@@H](CC(=O)O)C(=O)N[C@@H]1C(=O)NCC(=O)N[C@@H](CCCN)C(=O)N[C@@H](CC(=O)O)C(=O)N[C@H](C)C(=O)N[C@@H](CC(=O)O)C(=O)NCC(=O)N[C@H](CO)C(=O)N[C@@H]([C@H](C)CC(=O)O)C(=O)N[C@@H](CC(=O)c2ccccc2N)C(=O)O[C@@H]1C")
-0.30
>>> test_result("N=C(N)NCCCCCCN(CCCCCCCCNC(=N)NCC1CC1)C(=O)N(CCCCCCCCNC(=N)NCC1CC1)CCCCCCNC(=N)N.O=C(O)C(F)(F)F")
0.00
